Please provide measured residual activity for the entries that follow.
target: JAK2 JH1 JH2 (human)
assay-details: radiometric filter-binding kinase assay, Kinase HotSpot
details: compound 0.5 µM; ATP 10 µM
Answer with a number only, understood to be in %.

Ask | Please list residual activity recorded for the compound O=c1c(-c2ccc(F)cc2)c(-c2ccncc2)[nH]n1-c1ccc(Cl)cc1
Reply | 95.1

Ask | Please list residual activity recorded for the compound COc1cccc(-c2cc(=O)c3ccccc3o2)c1N
Reply | 104

Ask | Please list residual activity recorded for the compound COc1cc2ncnc(Nc3ccc(O)c(Br)c3)c2cc1OC
Reply | 95

Ask | Please list residual activity recorded for the compound O=S(=O)(NCCNC/C=C/c1ccc(Br)cc1)c1cccc2cnccc12
Reply | 109

Ask | Please list residual activity recorded for the compound O=c1[nH]c2ccccc2n1C1CCN(Cc2ccc(-c3nc4cc5[nH]cnc5cc4nc3-c3ccccc3)cc2)CC1
Reply | 104

Ask | Please list residual activity recorded for the compound c1ccc(-c2cnc(Nc3ccc(OCCN4CCCC4)cc3)s2)cc1
Reply | 92.7

Ask | Please list residual activity recorded for the compound O=C(c1ccccc1)c1ccc(N2CCOCC2)cc1O
Reply | 94.1

Ask | Please list residual activity recorded for the compound FC(F)(F)c1ccc(/C=C/c2nc(COc3ccc(CCCCn4ccnn4)cc3)co2)cc1
Reply | 98.9

Ask | Please list residual activity recorded for the compound Cc1cc(Nc2nc(-c3ccccc3)nc3ccccc23)n[nH]1
Reply | 52.6

Ask | Please list residual activity recorded for the compound O=C(O)c1ccc2c3c1cccc3c(=O)n1c3ccccc3nc21
Reply | 86.7

Ask | Please list residual activity recorded for the compound O=C1NC(=O)c2cc(Nc3ccc(F)cc3)c(Nc3ccc(F)cc3)cc21
Reply | 94.6
